Origin of the recorded values: patent US20200131669A1

system: Caco-2 cells; experiment: Caco-2 membrane permeability, improved method as used in the following Examples (96-well, 20 to 24 h preincubation); format: in vitro ADME; details: human, Caco-2, 180 min
Positions of bridges follow the written chain, without caps; N, C: chain ends. Non-standard residues stand in square brackets, D forms with d. Residues, ends and D or L forms follow the SMILES beside them. *: point of attachment. NMeAbu(3,3-F2-piperidino) = CN[C@@H](CCN1CCCC(F)(F)C1)C(=O)O; NMePhe(3-Cl) = CN[C@@H](Cc1cccc(Cl)c1)C(=O)O; NMeF = CN[C@@H](Cc1ccccc1)C(=O)O; NMeL = CN[C@@H](CC(C)C)C(=O)O; NMeV = CN[C@H](C(=O)O)C(C)C; NMeA = CN[C@@H](C)C(=O)O; Piperidide = C1CCN(*)CC1; CH2CMe2OH = CC(C)(O)C*; NPrGly = CCCNCC(=O)O; Sar = CNCC(=O)O
Each item that follows carries a reported Caco-2.

compound	tgt	Caco-2 (cm/s)
CCCN1CC(=O)N(C)[C@@H](Cc2ccccc2)C(=O)N[C@@H]([C@@H](C)CC)C(=O)N(C)[C@@H](CC(C)C)C(=O)N[C@@H]([C@@H](C)O)C(=O)N(CCC)CC(=O)N(C)[C@@H](Cc2ccccc2)C(=O)N(C)[C@@H](CC(C)C)C(=O)N[C@@H](COCC(C)(C)O)C(=O)N(C)[C@@H](C(C)C)C(=O)N[C@H](C(=O)N2CCCCC2)CC1=O [pd431] ([NPrGly][NMeF]I[NMeL]T[NPrGly][NMeF][NMeL]S(CH2CMe2OH)[NMeV]D-Piperidide; lactam N-11)	Caco-2 cells	1.1e-06
CC(C)C[C@@H]1NC(=O)[C@H](CCN2CCCC(F)(F)C2)N(C)C(=O)[C@@H](C(C)C)NC(=O)C[C@@H](C(=O)N2CCCCC2)NC(=O)[C@H](C)N(C)C(=O)[C@H](Cc2cccc(Cl)c2)N(C)C(=O)[C@H](CC(C)C)NC(=O)[C@H](CC(C)C)N(C)C(=O)CN(C)C(=O)[C@H]([C@@H](C)O)NC(=O)[C@H](Cc2ccccc2)N(C)C1=O [pd389] ([dV][NMeAbu(3,3-F2-piperidino)]L[NMeF]T[Sar][NMeL]L[NMePhe(3-Cl)][NMeA]D-Piperidide; lactam N-11)	Caco-2 cells	1.1e-06

###

experiment: Caco-2 membrane permeability, improved method as used in the following Examples (96-well, 20 to 24 h preincubation); format: in vitro ADME; details: human, Caco-2, Caco-2 (cm/sec)
Starred links: 1 amine or outer side, 2 acyl side, 3 side chain; linkers in the order of their positions; H or OH if unused. Positions of bridges follow the written chain, without caps; N, C: chain ends. Non-standard residues stand in square brackets, D forms with d. Residues, ends and D or L forms follow the SMILES beside them. *: point of attachment. Phe(4-CF3) = N[C@@H](Cc1ccc(C(F)(F)F)cc1)C(=O)O; NMePhe(3-Cl) = CN[C@@H](Cc1cccc(Cl)c1)C(=O)O; NMeF = CN[C@@H](Cc1ccccc1)C(=O)O; NMeGABA = CN(CCCC(=O)[*:2])[*:1]; NMeD = CN[C@@H](CC(=O)O)C(=O)O; NMeL = CN[C@@H](CC(C)C)C(=O)O; NMeV = CN[C@H](C(=O)O)C(C)C; NMeA = CN[C@@H](C)C(=O)O; Piperidide = C1CCN(*)CC1; dNMeA = CN[C@H](C)C(=O)O; Sar = CNCC(=O)O; tBu = CC(C)(C)*

compound	Papp A→B at 180 min [×10⁻⁶ cm/s]
CC(C)C[C@H]1C(=O)N[C@@H](COC(C)(C)C)C(=O)N(C)[C@@H](Cc2ccccc2)C(=O)N(C)[C@@H](CC(C)C)C(=O)N(C)[C@H](C(=O)N2CCCCC2)CC(=O)N2CCC[C@H]2C(=O)N(C)[C@@H](Cc2cccc(Cl)c2)C(=O)N[C@@H](C(C)C)C(=O)N(C)[C@@H](C(C)C)C(=O)N[C@@H]([C@@H](C)O)C(=O)N(C)CC(=O)N1C [pd166] (P[NMePhe(3-Cl)]V[NMeV]T[Sar][NMeL]S(tBu)[NMeF][NMeL][NMeD]-Piperidide; lactam N-11)	3.2
CC(C)C[C@@H]1NC(=O)[C@H](Cc2ccccc2)N(C)C(=O)[C@H]([C@@H](C)O)NC(=O)[C@H](Cc2ccccc2)N(C)C(=O)CN(C)C(=O)[C@H](Cc2ccccc2)NC(=O)[C@H](CC(C)C)N(C)C(=O)[C@H](CC(C)C)NC(=O)[C@H](Cc2ccccc2)N(C)C(=O)[C@H](C)N(C)C(=O)C[C@@H](C(=O)N2CCCCC2)NC1=O [pd231] ([NMeA][NMeF]L[NMeL]F[Sar][NMeF]T[NMeF]LD-Piperidide; lactam N-11)	0.21
CC[C@H](C)[C@@H]1NC(=O)[C@H](CC(C)C)N(C)C(=O)CCCN(C)C(=O)C[C@@H](C(=O)N2CCCCC2)NC(=O)[C@H](CC(C)C)N(C)C(=O)[C@H](C)N(C)C(=O)[C@H](Cc2c[nH]c3ccccc23)NC(=O)[C@H](CC(C)C)N(C)C(=O)[C@H](COC(C)(C)C)NC(=O)[C@H](CC(C)C)N(C)C(=O)[C@H](CC(C)C)N(C)C1=O [pd110] ([NMeGABA][NMeL]I[NMeL][NMeL]S(tBu)[NMeL]W[NMeA][NMeL]D-Piperidide; lactam N-11)	0.29
CC[C@H](C)[C@@H]1NC(=O)[C@H](C(C)C)N(C)C(=O)[C@H](C)N(C)C(=O)[C@H]([C@@H](C)O)NC(=O)[C@H](CC(C)C)N(C)C(=O)[C@H](Cc2ccc(C(F)(F)F)cc2)NC(=O)[C@H](CC(C)C)N(C)C(=O)[C@@H](C)N(C)C(=O)C[C@@H](C(=O)N2CCCCC2)NC(=O)[C@H](CC(C)C)NC(=O)[C@@H]2CCCN2C1=O [pd133] ([dNMeA][NMeL][Phe(4-CF3)][NMeL]T[NMeA][NMeV]IPLD-Piperidide; lactam N-11)	2.3

###

test: Caco-2 membrane permeability, improved method as used in the following Examples (96-well, 20 to 24 h preincubation); format: in vitro ADME; conditions: human, Caco-2, Caco-2 (cm/sec)
Positions of bridges follow the written chain, without caps; N, C: chain ends. Non-standard residues stand in square brackets, D forms with d. Residues, ends and D or L forms follow the SMILES beside them. *: point of attachment. Phe(4-CF3) = N[C@@H](Cc1ccc(C(F)(F)F)cc1)C(=O)O; NMeF = CN[C@@H](Cc1ccccc1)C(=O)O; NMeD = CN[C@@H](CC(=O)O)C(=O)O; NMeL = CN[C@@H](CC(C)C)C(=O)O; NMeV = CN[C@H](C(=O)O)C(C)C; NMeA = CN[C@@H](C)C(=O)O; Piperidide = C1CCN(*)CC1; Sar = CNCC(=O)O; tBu = CC(C)(C)*

molecule	unitAnnotation	Papp A→B at 180 min
CC(C)C[C@@H]1NC(=O)[C@H](Cc2ccccc2)N(C)C(=O)[C@H](COC(C)(C)C)NC(=O)[C@H](Cc2ccccc2)N(C)C(=O)[C@H](C)N(C)C(=O)[C@H](CC(C)C)N(C)C(=O)[C@@H](C)NC(=O)C[C@@H](C(=O)N2CCCCC2)N(C)C(=O)[C@H](Cc2ccccc2)N(C)C(=O)[C@H]([C@@H](C)O)NC(=O)[C@H](C(C)C)N(C)C1=O [pd208] ([dA][NMeL][NMeA][NMeF]S(tBu)[NMeF]L[NMeV]T[NMeF][NMeD]-Piperidide; lactam N-11)	×10⁻⁶ cm/s	1.7
CC(C)C[C@@H]1NC(=O)[C@H](Cc2ccccc2)N(C)C(=O)[C@H](COC(C)(C)C)NC(=O)[C@H](Cc2ccccc2)N(C)C(=O)[C@H](C)N(C)C(=O)[C@H](CC(C)C)N(C)C(=O)[C@@H](C)NC(=O)C[C@@H](C(=O)N2CCCCC2)NC(=O)[C@H](Cc2ccccc2)N(C)C(=O)[C@H]([C@@H](C)O)NC(=O)[C@H](CC(C)C)N(C)C1=O [pd220] ([dA][NMeL][NMeA][NMeF]S(tBu)[NMeF]L[NMeL]T[NMeF]D-Piperidide; lactam N-11)	×10⁻⁶ cm/s	1.1
CC(C)C[C@@H]1NC(=O)[C@H](Cc2ccccc2)N(C)C(=O)[C@H](C)NC(=O)C[C@@H](C(=O)N2CCCCC2)N(C)C(=O)[C@H](Cc2ccccc2)N(C)C(=O)[C@H](Cc2ccccc2)N(C)C(=O)[C@H](COC(C)(C)C)NC(=O)[C@H](CC(C)C)N(C)C(=O)CN(C)C(=O)[C@H]([C@@H](C)O)NC(=O)[C@H](CC(C)C)N(C)C1=O [pd209] (A[NMeF]L[NMeL]T[Sar][NMeL]S(tBu)[NMeF][NMeF][NMeD]-Piperidide; lactam N-11)	×10⁻⁶ cm/s	1.7
CC[C@H](C)[C@@H]1NC(=O)[C@H](CC(C)C)NC(=O)[C@H](CC(C)C)N(C)C(=O)[C@H](C)NC(=O)C[C@@H](C(=O)N2CCCCC2)NC(=O)[C@H](CC(C)C)N(C)C(=O)[C@H]([C@@H](C)O)NC(=O)[C@H](Cc2ccc(C(F)(F)F)cc2)NC(=O)[C@H](CC(C)C)N(C)C1=O [pd144] (A[NMeL]LI[NMeL][Phe(4-CF3)]T[NMeL]D-Piperidide; lactam N-9)	×10⁻⁶ cm/s	2.1
CC[C@H](C)[C@@H]1NC(=O)[C@H](CC(C)C)N(C)C(=O)[C@@H](C)NC(=O)C[C@@H](C(=O)N2CCCCC2)NC(=O)[C@H](C(C)C)N(C)C(=O)[C@H](CC(C)C)N(C)C(=O)[C@H](COC(C)(C)C)NC(=O)[C@H](CC(C)C)N(C)C(=O)CN(C)C(=O)[C@H](Cc2c[nH]c3ccccc23)NC(=O)[C@H](CC(C)C)N(C)C1=O [pd108] ([dA][NMeL]I[NMeL]W[Sar][NMeL]S(tBu)[NMeL][NMeV]D-Piperidide; lactam N-11)	×10⁻⁶ cm/s	0.87
